Molecular target: T1, mouse B7-H4ECD mIgG2a Fc fusion protein (mouse, UniProt Q7TSP5 25-257, limits assumed)
T1 construct: also called mouse B7-H4-mIg fusion protein; Mouse B7-H4-mouse-Ig Fusion Protein; not shown: mouse IgG2a Fc
T1 sequence: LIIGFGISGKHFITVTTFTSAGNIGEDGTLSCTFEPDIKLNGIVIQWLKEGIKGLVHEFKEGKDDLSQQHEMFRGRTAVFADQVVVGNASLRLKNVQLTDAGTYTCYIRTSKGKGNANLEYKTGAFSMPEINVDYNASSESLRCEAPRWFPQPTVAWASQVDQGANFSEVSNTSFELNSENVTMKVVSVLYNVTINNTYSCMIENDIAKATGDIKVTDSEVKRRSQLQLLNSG
Test: ELISA, mouse B7-H4ECD mIgG2a Fc fusion coated
pEC50: −log10 of the molar value.
Measurement type: pEC50

{"Binder": "humanized 6H3 variant 7 (antibody, V domains shown, also called V7; 6H3 V7) VH: EVQLVQSGAEMKKPGASVKVSCKASGYTFTDYYMNWVRQAPGQSLEWIGVINPYNGDTTYNQKFQGRVTVTVDKSATTAYMELSSLRSEDTAVYYCARYPESTYWGQGTLVTVSS VL: DVVMTQSPLSLPVTLGQPASISCRSSQSLVHINGNTYLHWYLQRPGQSPKVLIYKVSNRFSGVPDRFSGSGSGTDFTLKISRVEAEDVGVYFCSQSTHVPLTFGGGTKVEIK", "Measurement type": "pEC50", "Result number": 9.96}
{"Binder": "humanized 6H3 variant 2 (antibody, V domains shown, also called V2; 6H3 V2) VH: EVQLVQSGAEVKKPGASVKVSCKASGYTFTDYYMNWVRQAPGQGLEWIGIINPYNGDTSYNQKFKGRVTLTVDKSTSTAYMELSSLRSEDTAVYYCARYPESTYWGQGTLVTVSS VL: DVVMTQSPLSLPVTLGQPASISCRSSQSLVHINGNTYLHWYQQRPGQSPRVLIYKVSNRFSGVPDRFSGSGSGTDFTLKISRVEAEDVGVYFCSQSTHVPLTFGGGTKVEIK", "Measurement type": "pEC50", "Result number": 10.10}
{"Binder": "humanized 6H3 variant 14 (antibody, V domains shown, also called V14; 6H3 V14) VH: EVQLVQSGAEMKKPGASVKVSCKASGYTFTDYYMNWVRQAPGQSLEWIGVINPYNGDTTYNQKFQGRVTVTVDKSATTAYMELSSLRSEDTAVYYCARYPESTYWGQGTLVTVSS VL: DIVMTQTPLSLPVTLGQPASISCRSSQSLVHINGNTYLHWYLQRPGQSPKVLIYKVSNRFSGVPDRFSGSGSGTDFTLKISRVEAEDVGVYFCSQSTHVPLTFGAGTKVEIK", "Measurement type": "pEC50", "Result number": 9.96}
